Recorded measurements of TGI, one per entry
test system: EKVX NSCLC; assay: NCI tumour cell line growth inhibition, 48 h
Assay Endpoint: TGI

* Cc1nnc([S-])o1.[Au+].c1ccc([PH+](c2ccccc2)c2ccccc2)cc1 | 3.24 µM
* N#Cc1ccsc1Nc1ccccc1[N+](=O)[O-] | > 100 µM
* COc1ccc(N(CC(=O)O)S(=O)(=O)c2ccccc2)cc1 | > 100 µM
* Cc1nc2c(=O)n(C)c(=O)n(C)c2o1 | > 100 µM
* COC(=O)c1c2c(c(C)[n+]([O-])c1C)C(=O)C(NCc1cccc(Cl)c1)=CC2=O | 3.61 µM
* O=C1Nc2ccccc2S/C1=C\c1ccc(C(F)(F)F)cc1 | > 100 µM
* c1cc(N2CCN(c3ccc(C4=NCCN4)cc3)CC2)ccc1C1=NCCN1 | 65.2 µM
* O=Cc1ccc(-c2nccc3c2[nH]c2ccccc23)o1 | > 100 µM
* Cc1ccc(NC(=S)C#N)cc1Cl | > 100 µM
* NC(=O)c1ncn2c1NCC1OC2C(O)C1O (stereo unspecified) | > 100 µM
* O=C1C(c2ccccc2)=C(c2ccccc2)C(c2ccc(-c3ccc(C4=C(c5ccccc5)C(=O)C(c5ccccc5)=C4c4ccccc4)cc3)cc2)=C1c1ccccc1 | > 100 µM

====

Recorded measurements of log10 TGI, one per entry
tested on: MCF7 breast; assay: NCI tumour cell line growth inhibition, 48 h
Assay Endpoint: log10 TGI (log10 of the value in µM)

* CNCCCNc1c2cc(OC)ccc2nc2cccc([N+](=O)[O-])c12 | -1.00
* Cc1nn(-c2ccccc2)c(-n2ccnc2)c1/C=N/Nc1nc(-c2ccc(Cl)c(Cl)c2)cs1 | 0.80
* Cc1cc(I)cc(CN(C)CCN(C)C)c1O | 1.82
* CCOC(=O)c1ccc(NC(=O)Nc2nccs2)cc1 | 1.14
* OCCCNCC(O)c1ccc(OCc2ccccc2)c(OCc2ccccc2)c1 (stereo not given) | 1.20
* COc1ccc(/C=N/Nc2nc(N)nc(N3CCCC3)c2C#N)cc1 | 1.68
* COc1ccc(/C=C2\CS(=O)(=O)C/C(=C\c3ccc(OC)cc3)C2=O)cc1 | 0.89
* CCN(CCCNC(=O)Cc1cc(=O)oc2cc(N(C)C)ccc12)CCNc1ccnc2cc(Cl)ccc12 | 1.36

====

tested on: OVCAR-3 ovarian; assay: NCI tumour cell line growth inhibition, 48 h; in the data active means GI50 below about 0.43 µM; inactive means the rest
Outcomes: true (1) (active), false (0) (inactive)

- CC[C@@]1(O)C(=O)OCc2c1cc1n(c2=O)Cc2cc3c([N+](=O)[O-])c(OC)ccc3nc2-1: true (1)
- Cc1ccc(NS(=O)(=O)c2ccc(-c3cnc(C4CC4)o3)cc2)cc1C: true (1)
- CC(=O)OCC1OC(OC2CCCC[Si](c3ccccc3)(c3ccccc3)O2)C(OC(C)=O)C(OC(C)=O)C1OC(C)=O (configuration not stated): false (0)
- COc1ccc(-c2cc3c(OC)c(OC)c(OC)cc3oc2=O)cc1: false (0)
- COC(=O)c1c2c(c(C)[n+]([O-])c1C)C(=O)C(NCc1cccc(Cl)c1)=CC2=O: true (1)
- NS(=O)(=O)N(c1cc(C(F)(F)F)cc(C(F)(F)F)c1)C1CCN(Cc2ccc(C(F)(F)F)cc2)CC1: false (0)
- CN(C)c1ccc(O)c2c1CC1CC3C(N(C)C)C(=O)C(C(N)=O)=C(O)C3(O)C(=O)C1=C2O (configuration not stated): false (0)

====

system: ACHN renal; assay: NCI tumour cell line growth inhibition, 48 h
Assay Endpoint: TGI

* N#Cc1nc(-c2cccnc2)oc1N | > 100 µM
* CN1CCN(Cc2ccc(NC(=O)c3cnc(F)c(C#Cc4cnc(N)c5ncccc45)c3)cc2C(F)(F)F)CC1 | 5.27 µM
* O[C@H]1C=C2[C@H](C[C@@H]1O)CN1C[C@H]2c2cc3c(cc21)OCO3 | 36.3 µM
* Cc1ccc(-c2c(C#N)c(N)[nH]c(=S)c2C#N)cc1 | > 100 µM
* C=C1[C@@H](OC(C)=O)[C@H]2[C@@H](OC(C)=O)[C@@](C)(OC(C)=O)C[C@]2(OC(C)=O)C(=O)[C@@H](C)/C=C/C(C)(C)C(=O)C[C@H]1OC(C)=O | > 100 µM
* COc1cc(OC)c(C#N)c(OC)c1C | > 100 µM
* Cc1nn(-c2ccccc2)c(-n2ccnc2)c1/C=N/Nc1nc(-c2ccc(Cl)c(Cl)c2)cs1 | 16.9 µM
* COc1ccc(NC(=O)C(=O)NO)c(OC)c1 | 29.3 µM
* Cc1nn(C(=O)Cc2ccccc2)c2c1C(c1ccc3ccccc3c1O)SC(N)=N2 (centres undefined) | > 100 µM
* CCOC(=O)c1oc2c(OC)cc(Cl)c3c2c1CCC3 | > 100 µM
* CCC(/C=C(C)/C=C/C(=O)c1c(O)c(-c2ccc(O)cc2)c[nH]c1=O)CO (centres undefined) | 37.9 µM
* Cc1nc2c(=O)n(C)c(=O)n(C)c2o1 | > 100 µM
* CN(CCO)C1CCN(c2ccc(Nc3ncc4c5ccnc(F)c5n(C5CCCC5)c4n3)nc2)CC1 | 20.6 µM
* O=NNc1ccc(S(=O)c2ccccc2)cn1 (centres undefined) | > 100 µM
* C=C1C(=O)O[C@H]2[C@H]1CC/C(COC(=O)NCc1[nH]nc3ccccc13)=C\CC[C@@]1(C)O[C@@H]21 | 2.63 µM
* O=[N+]([O-])c1ccc2nc3n(c2c1)C(c1c(F)cccc1F)SC3 (centres undefined) | > 100 µM
* COc1ccc(NS(=O)c2ccc(Cl)cc2)cc1 (centres undefined) | > 100 µM
* Cc1ccc(Nc2nc3c(s2)C(=O)c2ccccc2C3=O)cc1 | 3.21 µM
* Cc1ccc2nc3n(c2c1)C(c1c(F)cccc1F)SC3 (centres undefined) | > 100 µM
* O=C(O)C1(C(=O)O)CC1 | > 100 µM
* COC(=O)c1sc(=O)n(-c2ccccc2)c1SCc1ccccc1 | > 100 µM
* CC1=C(C#N)C2C(=C(C)N1)C(N)=Nc1ccccc12 (centres undefined) | > 100 µM
* CNc1ccc(S(=O)Nc2ccc(OC)cc2)cc1 (centres undefined) | > 100 µM
* CC(C)(C)c1cc2c(O)c(c1)C(c1ccccc1)c1cc(C(C)(C)C)cc(c1O)Cc1cc(C(C)(C)C)cc(c1O)C(c1ccccc1)c1cc(C(C)(C)C)cc(c1O)C2 (centres undefined) | > 100 µM

====

system: A498 renal; assay: NCI tumour cell line growth inhibition, 48 h
Assay Endpoint: TGI

• CS(=O)(=O)Nc1ccc(Nc2cc[nH]c3ccc4nccc4c23)cc1 = 34.2 µM
• CCC(C)NC1=C(NC(C)=O)C(=O)c2ccccc2C1=O (stereo not drawn) = > 75 µM
• O=C1C2=C(CCCC2)Nc2cccc3ncn1c23 = > 100 µM

====

tested on: OVCAR-5 ovarian; experiment: NCI tumour cell line growth inhibition, 48 h
Where a SMILES comes first, the peptide text is derived from it. [ ]: non-standard residue; d: D form. Ac5c = NC1(C(=O)O)CCCC1
Assay Endpoint: TGI

- COc1ccc(-c2nc3ccc([N+](=O)[O-])cc3c(=O)[nH]2)cc1: > 100 µM
- COc1ccc(-c2cc3c(OC)c(OC)c(OC)cc3oc2=O)cc1: > 100 µM
- O=NNc1ccc(S(=O)c2ccccc2)cn1 (stereo not drawn): > 100 µM
- N=C1N(c2ccccc2)C(=S)C(=Nc2ccccc2)N1c1ccccc1: 32.1 µM
- CCOC(=O)c1c2c(n(Cc3ccc(Cl)cc3Cl)c1C)-c1nc(Cc3ccccc3)[nH]c1C(=O)C2=O: 4.56 µM
- Cc1nn(-c2ccccc2)c(-n2ccnc2)c1/C=N/Nc1nc(-c2ccc(Cl)c(Cl)c2)cs1: 57.6 µM
- CC(=O)c1c(-c2ccco2)c(C#N)c(=S)n(C2OC(CO)C(O)C(O)C2O)c1-c1ccccc1 (stereo not drawn): > 100 µM
- NCC(=O)NC1(C(=O)O)CCCC1 (H-Gly-[Ac5c]-OH): > 100 µM
- CC(=O)OCC1OC(OC2CCCC[Si](c3ccccc3)(c3ccccc3)O2)C(OC(C)=O)C(OC(C)=O)C1OC(C)=O (stereo not drawn): > 100 µM
- Clc1ccc(C(c2ccc(Cl)cc2)c2cncnc2)cc1: 29.5 µM
- O=C(/C=C\c1ccc(-c2ccccc2)cc1)c1cccs1: > 100 µM
- Cc1ccc(N=NC(=O)NNc2ccc(C)c([N+](=O)[O-])c2)cc1[N+](=O)[O-]: > 100 µM
- COc1ccc2c(c1)CC[C@@H]1[C@@H]2CC[C@]2(C)C(c3ccsc3)=C(/C=C/C(=O)c3ccccc3)C[C@@H]12: > 100 µM
- N#Cc1ccsc1Nc1ccccc1[N+](=O)[O-]: > 100 µM
- O=C1C=CC(=O)N1n1c(Cc2ccccc2)n[nH]c1=O: > 100 µM
- COC(=O)C1CCC(=O)C(Sc2ccccc2)C1 (stereo not drawn): > 100 µM
- O=C(Nc1cccc(-n2cc(-c3ccncc3)c(-c3ccc(Cl)c(O)c3)n2)c1)Nc1cccc(C(F)(F)F)c1: > 32.5 µM
- O=C1Nc2ccccc2S/C1=C\c1ccc(C(F)(F)F)cc1: > 100 µM
- c1cc(N2CCN(c3ccc(C4=NCCN4)cc3)CC2)ccc1C1=NCCN1: > 100 µM
- CCOC(=O)c1oc2c(OC)cc(Cl)c3c2c1CCC3: > 100 µM
- COC(=O)C(C)(Cc1ccc2c(c1)nnn2C(C)=O)NC(C)=O (stereo not drawn): > 100 µM
- CC(C)(Oc1ccc(C(=O)c2ccc(Cl)cc2)cc1Cl)C(=O)Nc1c(Cl)cccc1Cl: > 100 µM
- Cc1ccc(NC(=S)C#N)cc1Cl: 85.7 µM
